Consider the following binders; for each one, report its pKd.
# TARGET: SNAP-25 peptide comprising amino acids 134-197 of SEQ ID NO:5 (human)
# ASSAY_COMMENT: SPR (BIAcore 3000), peptide on CM5 chip, 1:1 fit
pKd here is simply -log10 of the concentration when that concentration is written in mol/L.

Look at this binder and give its reported pKd. α-SNAP-25 mouse monoclonal antibody 1D3B8 (antibody, V domains shown) VH: QVKLQESGAELVKPGASVKISCKASGYIFTDHALHWVRQKPEQGLEWIGYIFPGNGNIEYNEKFKGKATLTADKSSSTAYMQLNSLTSGDSAMYFCKKMDYWGQGTTVTVSS VL: DVLMTQTPLSLPVSLGDQASISCRSSQSIVHSNGNTYLEWYLQKPGQSPKLLIYKVSNRFSGVPDRFSGSGSGTDFTLKISRVEAEDLGVYYCFQGSHVPPTFGAGTKLELKR
10.30

Look at this binder and give its reported pKd. α-SNAP-25 mouse monoclonal antibody 2E2A6 (antibody, V domains shown) VH: QVQLQQSDAELVKPGASVKISCRASGYTFTDHSIHWVKQQPGQGLEWIGYIFPGNGNIEYNDKFKGKATLTADKSSGTAYMQLNSLTSEDSAVYFCKRMGYWGQGTSVTVSS VL: DVLMTQTPLTLSVTIGQPASISCKSSQSLLYTNGKTYLTWLFQRPGQSPKRLIYLVSELDSGVPDRFSGSGSGTDFTLEITRVEAEDLGVYYCLQSAHFPFTFGSGTKLEIKR
10.05

Look at this binder and give its reported pKd. α-SNAP-25 mouse monoclonal antibody 3C1A5 (antibody, V domains shown) VH: QVKLQESGAELVKPGASVKISCKASGYTFTDHSIHWVKQKPGQGLEWIGYLFPGNGNFEYNEKFKGKATLTADKSSSTVYMYLNSLTSEDSAVYFCKRMGYWGQGTTVTVSS VL: DVVMTQTPLTLSVTIGQPASISCKSSQSLLNTNGKTYLTWLIQRPGQSPQRLIYLVSKLDSGVPDRFSGSGSGTDFTLKISRVEAEDLGVYYCLQSSHFPFTFGSGTKLEIKR
8.88

Look at this binder and give its reported pKd. α-SNAP-25 mouse monoclonal antibody 2C9B10 (antibody, V domains shown) VH: QVKLQESGAELVKPGASVKISCKASGYTFTDHSIHWVKQKPGQGLEWIGYLFPGNGNFEYNEKFKGKATLTADKSSSTAYMHLNSLTSEDSAVYFCKKMDYWGQGTTVTVSS VL: DIQMTQSPASLSASVGETVTITCRTTENIYSYFVWSQQRQGKSPQLRVYNAKSLAEGVPSSFNVSVSGTQFSLKINSLQPEDFGTYHCQHHYGTPYTFGGGTRLEIRR
7.57
